- Subject Of Test: T1, human CD47 (hCD47) expressed on cells (human, UniProt Q08722 19-323)
- T1 construct: Transfected CHO cells or endogenous CD47 of human cells; also called CHO-hCD47; CD47 on Raji cells
- Test Name: flow cytometry, Raji cells

- Binder: "h20-VH5-VL4 (candidate 20.24) (antibody, human IgG4 S228P, kappa, V domains shown, hIgG4-S228P/kappa; also called h20-H5-L4) VH: QVQLVQSGAEVKKPGASVKVSCKASGYSFTDYYINWVRQAPGQGLEWMGRIYPGIGNTYYNKKFKGRVTMTRYTSISTAYMELSRLRSDDTAVYFCARGHYGRGMDYWGQGTTVTVSS VL: DIVMTQSPDSLAVSLGERATINCKSSQSLLNSIDQKNYLAWYQQKPGQPPKLLIYFASTKESGVPDRFSGSGSGTDFTLTISSLQAEDVAVYFCQQHYSTPWTFGGGAKVEIKR"
  EC50 / µg/mL: 0.177
- Binder: "h20-VH5-VL3 (candidate 20.23) (antibody, human IgG4 S228P, kappa, V domains shown, hIgG4-S228P/kappa; also called h20-H5-L3) VH: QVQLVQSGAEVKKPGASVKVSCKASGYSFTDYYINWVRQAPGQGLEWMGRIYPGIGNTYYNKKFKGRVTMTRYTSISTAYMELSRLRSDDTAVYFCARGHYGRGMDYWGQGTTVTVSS VL: EIVLTQSPDSLAVSLGERATINCKSSQSLLNSIDQKNYLAWYQQKAGQSPKLLIYFASTKESGVPDRFSGSGSGTDFTLTIDSLQAEDVAVYYCQQHYSTPWTFGGGTKVEIKR"
  EC50 / µg/mL: 0.19
- Binder: "h20-VH1-VL4 (candidate 20.4) (antibody, human IgG4 S228P, kappa, V domains shown, hIgG4-S228P/kappa; also called h20-H1-L4) VH: QVQLLESGAVLARPGTSVKISCKASGYSFTDYYINWVKQRPGQGLEWIGRIYPGIGNTYYNKKFKGRAKLTAATSASIAYLEFSSLTNEDSAVYYCARGHYGRGMDYWGQGTLVTVSS VL: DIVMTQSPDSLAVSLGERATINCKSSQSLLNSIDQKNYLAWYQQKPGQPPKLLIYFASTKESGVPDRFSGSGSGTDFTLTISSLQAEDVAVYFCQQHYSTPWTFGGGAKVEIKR"
  EC50 / µg/mL: 0.248
- Binder: "h20-VH5-VL5 (candidate 20.25) (antibody, human IgG4 S228P, kappa, V domains shown, hIgG4-S228P/kappa; also called h20-H5-L5) VH: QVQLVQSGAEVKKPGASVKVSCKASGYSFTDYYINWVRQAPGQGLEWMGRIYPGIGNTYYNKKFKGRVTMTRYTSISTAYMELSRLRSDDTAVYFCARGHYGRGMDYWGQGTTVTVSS VL: DIVMTQSPDSLAVSLGERATINCKSSQSLLNSIDQKNYLAWYQQKPGQPPKLLIYFASTKESGVPDRFSGSGSGTDFTLTISGLQAEDVAVYFCQQHYSTPWTFGGGTKVEIRR"
  EC50 / µg/mL: 0.159
- Binder: "h20-VH1-VL5 (candidate 20.5) (antibody, human IgG4 S228P, kappa, V domains shown, hIgG4-S228P/kappa; also called h20-H1-L5) VH: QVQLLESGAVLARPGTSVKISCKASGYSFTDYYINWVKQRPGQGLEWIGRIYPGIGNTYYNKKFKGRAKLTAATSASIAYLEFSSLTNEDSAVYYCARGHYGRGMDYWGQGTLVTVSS VL: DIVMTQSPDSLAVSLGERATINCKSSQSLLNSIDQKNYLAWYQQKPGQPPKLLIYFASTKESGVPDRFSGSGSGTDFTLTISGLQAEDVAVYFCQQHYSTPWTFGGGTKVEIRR"
  EC50 / µg/mL: 0.206
- Binder: "h20-VH2-VL5 (candidate 20.10) (antibody, human IgG4 S228P, kappa, V domains shown, hIgG4-S228P/kappa; also called h20-H2-L5) VH: QVQLVQSGAEVKKPGASVKVSCKASGYSFTDYYINWVRQAPGQGLEWMGRIYPGIGNTYYNKKFKGRVTITRDTSASTAYMELSSLRSEDTAVYYCARGHYGRGMDYWGQGTLVTVSS VL: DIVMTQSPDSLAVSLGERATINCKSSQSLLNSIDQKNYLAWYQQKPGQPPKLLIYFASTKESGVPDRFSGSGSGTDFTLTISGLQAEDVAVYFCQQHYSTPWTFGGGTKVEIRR"
  EC50 / µg/mL: 0.191
- Binder: "h20-VH3-VL5 (candidate 20.15) (antibody, human IgG4 S228P, kappa, V domains shown, hIgG4-S228P/kappa; also called h20-H3-L5) VH: QVQLVQSGAEVKKPGASVKVSCKASGYSFTDYYINWVRQAPGQGLEWMGRIYPGIGNTYYNKKFKGRVTVTRDTSISTAHMELSSLRSDDTAVYYCARGHYGRGMDYWGQGTAVTVSS VL: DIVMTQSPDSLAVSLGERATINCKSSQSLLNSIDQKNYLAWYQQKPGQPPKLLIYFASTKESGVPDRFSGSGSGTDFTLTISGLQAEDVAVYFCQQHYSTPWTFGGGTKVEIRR"
  EC50 / µg/mL: 0.143
- Binder: "h20-VH1-VL3 (candidate 20.3) (antibody, human IgG4 S228P, kappa, V domains shown, hIgG4-S228P/kappa; also called h20-H1-L3) VH: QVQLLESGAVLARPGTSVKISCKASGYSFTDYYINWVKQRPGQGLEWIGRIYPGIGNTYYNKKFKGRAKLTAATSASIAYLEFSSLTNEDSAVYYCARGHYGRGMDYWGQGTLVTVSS VL: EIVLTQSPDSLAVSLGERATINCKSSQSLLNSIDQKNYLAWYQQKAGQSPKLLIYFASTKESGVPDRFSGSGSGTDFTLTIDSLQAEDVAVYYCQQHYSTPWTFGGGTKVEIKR"
  EC50 / µg/mL: 0.184
